Record form. Attribute: Acetyl-K sites: Down-regulated, %. Fill in for each entry.
Test system: ML-2
Test: Acetylome analysis (Acetyl-K enrichment, LC-MS/MS)
Format: cell-based, human
Conditions: ML-2 (Fig 4C)
Answer format: numeric, % implied, no suffix.

Query: Notebook: pull reported Acetyl-K sites: Down-regulated, % for ML-2, entry O=C(CCCCCCC(=O)Nc1ccccc1)NO [Vorinostat, reference compound]
Response: 7.7

Query: Notebook: pull reported Acetyl-K sites: Down-regulated, % for ML-2, entry COc1cc2nc(-c3cc(C)oc3C)cc(NCC3CCN(c4ncc(C(=O)NO)cn4)CC3)c2cc1OC
Response: 10.9

Query: Notebook: pull reported Acetyl-K sites: Down-regulated, % for ML-2, entry Cc1[nH]c2ccccc2c1CCNCc1ccc(/C=C/C(=O)NO)cc1 [Panobinostat, reference compound]
Response: 8.9

Query: Notebook: pull reported Acetyl-K sites: Down-regulated, % for ML-2, entry COc1cc2nc(-c3ccc(C)o3)cc(NCC3CCN(c4ncc(C(=O)NO)cn4)CC3)c2cc1OC
Response: 11.9

###

Experiment: Kinetic solubility
Assay type: physicochemical
Details: PBS buffer, aqueous buffer, kinetic from dmso stock, pH 7.4, PBS
Measured Attribute: solubility at 24 h (µg/mL)
Answer format: numeric, µg/mL implied, no suffix.

Query: Requested read-out: solubility at 24 h. Entry: COc1cc2nc(-c3ccc(C)o3)cc(NCC3CCN(c4ncc(C(=O)NO)cn4)CC3)c2cc1OC
Response: 118

###

Measured Attribute: IC50

Query: Notebook: pull reported IC50 for WDR9 (Homo sapiens, UniProt Q9NSI6), entry COc1cc2nc(-c3ccc(C)o3)cc(NCC3CCN(c4ncc(C(=O)NO)cn4)CC3)c2cc1OC
Response: > 50 µM

###

Test system: HL-60
Assay: Differentiation-apoptosis assay, CD11b / annexin-V / Sytox Green / myeloid markers flow cytometry
Type: cell-based, human
Conditions: HL-60, daily 25% GI50, 48 h
Measured Attribute: CD11b (%) Replicate 3
Answer format: numeric, % implied, no suffix.

Query: Requested read-out: CD11b (%) Replicate 3. Entry: COc1cc2c(NCC3CCN(C)CC3)cc(-c3ccc(C)o3)nc2cc1OCCCN1CCCC1
Response: 0.00

Query: Requested read-out: CD11b (%) Replicate 3. Entry: CC1=C(/C=C/C(C)=C/C=C/C(C)=C/C(=O)O)C(C)(C)CCC1 [ATRA, all-trans retinoic acid, reference compound]
Response: 12.56

Query: Requested read-out: CD11b (%) Replicate 3. Entry: CCCc1nn(C)c2c(=O)[nH]c(-c3cc(S(=O)(=O)N4CCN(C)CC4)ccc3OCC)nc12 [Sildenafil, reference compound]
Response: 4.47

Query: Requested read-out: CD11b (%) Replicate 3. Entry: Nc1ncn([C@H]2C[C@H](O)[C@@H](CO)O2)c(=O)n1 [Decitabine, reference compound]
Response: 9.03

###

Test system: ML-2
Experiment: Acetylome analysis (Acetyl-K enrichment, LC-MS/MS)
Assay type: cell-based, human
Details: ML-2 (Fig 4C)
Record form. Attribute: Acetyl-K sites: Regulated, %. Fill in for each entry.
Answer format: numeric, % implied, no suffix.

Query: Notebook: pull reported Acetyl-K sites: Regulated, % for ML-2, entry O=C(CCCCCCC(=O)Nc1ccccc1)NO [Vorinostat, reference compound]
Response: 14.1

Query: Notebook: pull reported Acetyl-K sites: Regulated, % for ML-2, entry COc1cc2nc(-c3ccc(C)o3)cc(NCC3CCN(c4ncc(C(=O)NO)cn4)CC3)c2cc1OC
Response: 22.8

Query: Notebook: pull reported Acetyl-K sites: Regulated, % for ML-2, entry COc1cc2nc(-c3cc(C)oc3C)cc(NCC3CCN(c4ncc(C(=O)NO)cn4)CC3)c2cc1OC
Response: 20.3

Query: Notebook: pull reported Acetyl-K sites: Regulated, % for ML-2, entry Cc1[nH]c2ccccc2c1CCNCc1ccc(/C=C/C(=O)NO)cc1 [Panobinostat, reference compound]
Response: 17.7
